biological target: T1, human CD117 ectodomain (human, UniProt P10721 26-524, biotinylated (BirA co-expression) where captured on streptavidin biosensors); test: BLI (Octet), biotinylated ectodomain on SA biosensor, 1:1 global fit, monomeric Fc
T1 construct: extracellular domain; also called cKIT; full length AviTagged CD117 ectodomain; not shown: C-terminal AviTag or His tag
T1 sequence (P10721 26-524): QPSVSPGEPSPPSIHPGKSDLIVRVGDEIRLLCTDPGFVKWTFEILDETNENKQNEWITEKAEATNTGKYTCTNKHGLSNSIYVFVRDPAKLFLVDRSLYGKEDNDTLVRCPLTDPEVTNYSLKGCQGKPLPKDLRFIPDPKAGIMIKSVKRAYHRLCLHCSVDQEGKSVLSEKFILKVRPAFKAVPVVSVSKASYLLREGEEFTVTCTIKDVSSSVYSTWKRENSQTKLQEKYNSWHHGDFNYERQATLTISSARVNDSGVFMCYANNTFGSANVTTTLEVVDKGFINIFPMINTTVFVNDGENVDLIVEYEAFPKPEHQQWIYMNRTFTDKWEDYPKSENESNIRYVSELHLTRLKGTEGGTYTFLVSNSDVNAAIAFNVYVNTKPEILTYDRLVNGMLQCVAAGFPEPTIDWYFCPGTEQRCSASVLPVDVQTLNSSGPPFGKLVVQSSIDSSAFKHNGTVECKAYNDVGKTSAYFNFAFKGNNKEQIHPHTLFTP
assay-readout: Kd (nM)

binder | readout-value
P-0035 (Fc fusion, Any second Fc chain without VHH is not described in the text; also called monovalent form of P35; not shown: Fc fragment) QVQLVESGGGLVQAGGSLRLSCAASGGTFSIYPVGWFRQAPGKQREFVAAIGWSASGTYYGDSVEGRFTVSRDNARSTVYLRMSSLKPDDTAVYYCAAASGSNWRLGAIDEYDSWGQGTQVTVSS | 2.89
P-0010 (Fc fusion, Any second Fc chain without VHH is not described in the text; also called monovalent form of P10; not shown: Fc fragment) QVQLVESGGGLVQAGGSLRLSCVASGRTFSSYAMGWFRQGPGKEREFAAAILSNGLTTYYADSVKGRFTISRDNAKDTVYLQMNSLKPEDTANYYCAAAFTPEFRDGGIWDDASVDYWGQGTQVTVSS | 16.5
P-0031 (Fc fusion, Any second Fc chain without VHH is not described in the text; also called monovalent form of P31; not shown: Fc fragment) EVQLVESGGGLVRAGGSLRLSCAASGRTFTYDARAWFRQAPGKEREFVAAISWSGGSTYYPNSMKGRFTISRDNAKNTVYLQMNSLKPEDTAVYYCAADESFPAYYSDYALYRYWGQGTLVTVSS | 7.42
P-0012 (Fc fusion, Any second Fc chain without VHH is not described in the text; also called monovalent form of P12; not shown: Fc fragment) QVQLVESGGGLVQAGGSLRLSCTASGDTFSSYSMGWFRQGPGKEREFVGGIRWSGGTTYYADSVKGRFTISRDNAKNTVYLQMNSLKREDTAVYYCAAVRRRWLIWQEEEYDYWGQGTLVTVSS | 49.2
P-0027 (Fc fusion, Any second Fc chain without VHH is not described in the text; also called monovalent form of P27; not shown: Fc fragment) EVQLVESGGGLVRAGGSLRLSCAASGRTTFSTYWLGWFRQAPGKNREFVAAISWSAGMAYYQDSKGRFTISRDNTKNTAYLQMNSLQPEDTAVYYCAAGRFHPIRVDTALYWAQGTQVTVSS | 44.7
P-0038 (Fc fusion, Any second Fc chain without VHH is not described in the text; also called monovalent form of P38; not shown: Fc fragment) EVQLVESGGGLVQAGGSLRLSCAASGRTSGSYVMGWFRQAPGKEREFVAAISWSAGMTYYADSVKGRFTISRDNAKNTVYLQMNSLKPEDTAVYYCAADQRGVPAYYSDYALYDYWGQGTQVTVSS | 8.85
P-0029 (Fc fusion, Any second Fc chain without VHH is not described in the text; also called monovalent form of P29; not shown: Fc fragment) QVHLVESGGGLVQAGGSLGLSCAASGHTFSNYAMGWFRQAPGKEREFVAAISWSGGSTLYADSVKGRFTISRDNGENTVYLQMNSLKPEDTAVYYCALDSTGVYGTGYVSSRKGRYEYWGQGTLVTVSS | 37.4
